- testedOn: Estrogen receptor (Homo sapiens)
- test: qHTS assay to identify small molecule agonists of the estrogen receptor alpha (ER-alpha) signaling pathway using the BG1 cell line (AID 743079); further: nearly all actives have a fitted effect of over 20% in size; further: potency means the concentration at half of the fitted maximal effect
- details: BG1Luc4E2 cells, ERE-luciferase agonist, 22 h
Results filed as inconclusive are left out. The source made the active and inactive calls. The call rests on the fitted dose curve; in most records, active means well fitted activation curve with a large enough effect in the repeat runs; inconclusive means weak or mixed curves, or effect the other way; inactive means no such curve, though single readings can be large or run the other way.

compound | Potency
C=CC1=C(C)C2=CC3=NC(=C(CC(=O)[O-])C4=NC(=C(C)C4=C([O-])[O-])C=c4[n-]c(c(C)c4CC)=CC1=N2)C(CCC(=O)[O-])C3C.[Cu+2].[Na+].[Na+].[Na+] (stereo not given) | inactive
CC(=O)N[C@@H](C=O)[C@@H](O)[C@H](O)[C@H](O)CO | inactive
CC[N+](C)(C)Cc1ccccc1Br | inactive
Cc1cc(C(=O)NNCc2ccccc2)no1 | 5.07 µM (active)
O=S(O)CNc1ccc(S(=O)(=O)c2ccc(NCS(=O)O)cc2)cc1 | inactive
CN(C)C(=O)CCSC(SCCC(=O)O)c1cccc(/C=C/c2ccc3ccc(Cl)cc3n2)c1 (stereo not given) | 2.37 µM (active)
Nc1ncnc2c1ncn2[C@@H]1O[C@H](COP(=O)(O)OP(=O)(O)OP(=O)(O)O)[C@@H](O)[C@H]1O | inactive
CO[C@H]1O[C@@H]2O[C@@]3(C)CC[C@H]4[C@H](C)CC[C@@H]([C@H]1C)[C@@]24OO3 | inactive
CCOC(=O)[C@@H](N)CS | 29.8 µM (active)
Nc1ncnc(Nc2ccc(Cl)cc2)n1 | 23.7 µM (active)
O=S(=O)(O)CCCS(=O)(=O)O | inactive
CN1CCCC(CN2c3ccccc3Sc3ccccc32)C1 (stereo not given) | inactive
O=C(NNCS(=O)(=O)O)c1ccncc1 | inactive
CO[C@@H]1[C@@H](O[C@@H]2O[C@H](C)[C@@H](O[C@H]3C[C@@](C)(O)[C@@H](OC(=O)CC(C)C)[C@H](C)O3)[C@H](N(C)C)[C@H]2O)[C@@H](CC=O)C[C@@H](C)[C@@H](O)/C=C/C=C/C[C@@H](C)OC(=O)C[C@H]1O | 13.3 µM (active)
CC1=C(C(=O)OCCN(Cc2ccccc2)c2ccccc2)C(c2cccc([N+](=O)[O-])c2)C(P2(=O)OCC(C)(C)CO2)=C(C)N1 (stereo not given) | inactive

* * *

- testedOn: Nuclear receptor subfamily 1 group I member 2 (Homo sapiens) (UniProt O75469)
- test: Human pregnane X receptor (PXR) activation by small molecules, qHTS assay (AID 1346985); further: nearly all actives have a fitted effect of over 40% in size
- details: DPX-2 HepG2 CYP3A4-luciferase, 24 h; series mostly up to 38.3 µM
Results filed as inconclusive are left out. Active and inactive are the calls of the source. The call rests on the fitted dose curve; in most records, active means well fitted activation curve with a large enough effect in the repeat runs; inconclusive means weak or mixed curves; inactive means flat fitted curve, though single readings scatter. Non-standard residues stand in square brackets, D forms with d. Residues, ends and D or L forms follow the SMILES beside them. pGlu = O=C1CC[C@@H](C(=O)O)N1; Thz = O=C(O)[C@@H]1CSCN1
Classes used: t = active, f = inactive

compound | className
CC(=O)O[C@]1(C(C)=O)CC[C@H]2[C@@H]3CCC4=CC(=O)CC[C@]4(C)[C@@]3(F)[C@@H](O)C[C@@]21C | f
CN1[C@@H]2CC[C@H]1CC(OC(c1ccccc1)c1ccccc1)C2 (stereo partly specified) | f
CC(C)(C)CC(C)(C)c1cc(Cc2cc(C(C)(C)CC(C)(C)C)cc(-n3nc4ccccc4n3)c2O)c(O)c(-n2nc3ccccc3n2)c1 | f
C=C[C@]1(C)C[C@@H](OC(=O)CSCCN(CC)CC)[C@]2(C)[C@H](C)CC[C@]3(CCC(=O)[C@H]32)[C@@H](C)[C@@H]1O | t
CN[C@@H]1[C@@H](O)[C@@H](O[C@@H]2[C@@H](O)[C@H](O[C@H]3O[C@H](CN)[C@@H](O)[C@H](O)[C@H]3O)[C@@H](N)C[C@H]2NC(=O)C(O)CN)OC[C@]1(C)O (stereo partly specified) | f
CC[C@@H](C(=O)[C@@H](C)[C@@H](O)[C@H](C)[C@@H]1O[C@@H]([C@@H](CC)C(=O)O)CC[C@@H]1C)[C@H]1O[C@]2(C=C[C@@H](O)[C@]3(CC[C@@](C)([C@H]4CC[C@](O)(CC)[C@H](C)O4)O3)O2)[C@H](C)C[C@@H]1C | f
CC(C)[C@H](N)C(=O)OCC(CO)OCn1cnc2c(=O)[nH]c(N)nc21 (stereo partly specified) | f
CCCCCCCCCCCCCCCC(=O)OCC(COC(=O)CCCCCCCCCCCCCCC)OC(=O)CCCCCCCCCCCCCCC | f
CCCCCCCCCCCCCCCCCC(=O)OCC(C)O (stereo unspecified) | f
O=C(O)CCC/C=C\C[C@@H]1[C@@H](/C=C/[C@@H](O)COc2cccc(C(F)(F)F)c2)[C@H](O)C[C@@H]1O | f
O=C1CC[C@@H](C(=O)N2CSC[C@H]2C(=O)O)N1 ([pGlu]-[Thz]-OH) | f
C[C@H](N)C(=O)N[C@@H](C)P(=O)(O)O | f
O=C(O)[C@H]1/C(=C/CO)O[C@@H]2CC(=O)N21 | f
CC(C)(S)[C@@H](N)C(=O)O | f
Cc1nc(NS(=O)(=O)c2ccc(N)cc2)nc(C)c1Br | f
CCOC(=O)C1=C[C@@H](OC(CC)CC)[C@H](NC(C)=O)[C@@H](N)C1 | f
